Catalogue of pSTAT3 (MFI) in CD4 T cells at 1 µM values
- tgt: T1, IL10Rα and IL2Rγ on human primary cells (CD8 T cells, CD4 T cells, monocytes) (human) (UniProt Q13651)
- T1 sequence (looked up) 1: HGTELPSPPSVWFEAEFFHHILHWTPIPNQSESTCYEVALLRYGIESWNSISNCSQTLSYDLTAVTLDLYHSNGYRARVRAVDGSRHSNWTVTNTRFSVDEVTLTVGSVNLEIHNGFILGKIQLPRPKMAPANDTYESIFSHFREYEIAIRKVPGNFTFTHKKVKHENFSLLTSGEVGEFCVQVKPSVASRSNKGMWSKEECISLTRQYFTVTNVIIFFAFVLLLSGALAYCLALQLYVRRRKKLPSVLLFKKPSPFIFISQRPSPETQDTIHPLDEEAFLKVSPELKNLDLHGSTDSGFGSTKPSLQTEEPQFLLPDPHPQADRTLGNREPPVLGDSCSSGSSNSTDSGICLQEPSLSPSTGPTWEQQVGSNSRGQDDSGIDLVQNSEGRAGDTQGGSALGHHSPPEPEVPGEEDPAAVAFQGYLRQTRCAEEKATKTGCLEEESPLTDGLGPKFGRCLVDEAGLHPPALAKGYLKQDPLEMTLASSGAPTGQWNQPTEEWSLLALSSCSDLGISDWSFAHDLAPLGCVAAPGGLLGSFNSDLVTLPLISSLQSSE
- T1 sequence (looked up) 2: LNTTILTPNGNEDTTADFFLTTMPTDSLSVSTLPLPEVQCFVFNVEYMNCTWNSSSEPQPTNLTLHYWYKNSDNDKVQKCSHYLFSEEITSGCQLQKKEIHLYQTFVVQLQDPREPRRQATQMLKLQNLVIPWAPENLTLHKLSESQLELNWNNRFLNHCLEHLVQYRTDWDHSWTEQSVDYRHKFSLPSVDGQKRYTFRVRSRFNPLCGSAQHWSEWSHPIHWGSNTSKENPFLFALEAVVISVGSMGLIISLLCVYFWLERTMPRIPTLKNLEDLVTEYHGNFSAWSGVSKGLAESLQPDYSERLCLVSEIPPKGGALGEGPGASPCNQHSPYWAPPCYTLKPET
- protocol_notes: cell-based or functional assay
property: pSTAT3 (MFI) in CD4 T cells at 1 µM

# binder, unit, numeric_result
records = [
    ("hIL10Ra_VHH14-hIL2Rg_VHH19, linker GGGS, tag Fc (Fc fusion, not shown: a dimerising Fc or GST) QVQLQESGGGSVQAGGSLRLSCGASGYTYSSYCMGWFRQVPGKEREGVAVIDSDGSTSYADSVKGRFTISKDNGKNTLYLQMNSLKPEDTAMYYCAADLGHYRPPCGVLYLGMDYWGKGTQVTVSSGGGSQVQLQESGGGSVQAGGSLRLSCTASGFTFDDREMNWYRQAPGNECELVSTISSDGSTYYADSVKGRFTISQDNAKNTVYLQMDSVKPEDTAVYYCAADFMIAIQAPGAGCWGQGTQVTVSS", "MFI", 13600),
    ("hIL10Ra_VHH14-hIL2Rg_VHH19, linker GS, tag his (bispecific antibody, not shown: small tags and cut ends) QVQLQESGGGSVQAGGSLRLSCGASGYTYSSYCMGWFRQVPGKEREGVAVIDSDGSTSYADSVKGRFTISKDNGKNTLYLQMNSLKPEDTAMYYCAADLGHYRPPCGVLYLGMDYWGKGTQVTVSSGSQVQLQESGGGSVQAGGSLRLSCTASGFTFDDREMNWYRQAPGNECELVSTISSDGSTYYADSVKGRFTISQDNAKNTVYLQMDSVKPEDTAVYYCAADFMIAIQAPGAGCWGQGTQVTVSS", "MFI", 12900),
    ("hIL10Ra_VHH14-hIL2Rg_VHH19, no linker, tag his (bispecific antibody, not shown: small tags and cut ends) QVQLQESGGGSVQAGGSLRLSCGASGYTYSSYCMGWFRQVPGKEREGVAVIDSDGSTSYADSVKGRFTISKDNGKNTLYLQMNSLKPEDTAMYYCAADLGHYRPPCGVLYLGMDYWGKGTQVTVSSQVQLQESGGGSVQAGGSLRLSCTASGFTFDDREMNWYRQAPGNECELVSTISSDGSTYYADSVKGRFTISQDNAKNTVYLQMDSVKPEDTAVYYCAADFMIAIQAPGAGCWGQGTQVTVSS", "MFI", 12100),
    ("hIL10Ra_VHH14-hIL2Rg_VHH19, linker GGGS, tag his (bispecific antibody, not shown: small tags and cut ends) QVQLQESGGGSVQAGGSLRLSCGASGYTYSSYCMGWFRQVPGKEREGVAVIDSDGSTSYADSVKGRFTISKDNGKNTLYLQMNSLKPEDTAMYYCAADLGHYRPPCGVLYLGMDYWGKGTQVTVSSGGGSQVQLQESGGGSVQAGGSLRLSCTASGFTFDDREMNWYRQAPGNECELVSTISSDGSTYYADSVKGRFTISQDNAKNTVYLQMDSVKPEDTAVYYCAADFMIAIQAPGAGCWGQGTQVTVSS", "MFI", 9590),
    ("hIL10Ra_VHH14-hIL2Rg_VHH19, linker GGSGGS, tag his (bispecific antibody, not shown: small tags and cut ends) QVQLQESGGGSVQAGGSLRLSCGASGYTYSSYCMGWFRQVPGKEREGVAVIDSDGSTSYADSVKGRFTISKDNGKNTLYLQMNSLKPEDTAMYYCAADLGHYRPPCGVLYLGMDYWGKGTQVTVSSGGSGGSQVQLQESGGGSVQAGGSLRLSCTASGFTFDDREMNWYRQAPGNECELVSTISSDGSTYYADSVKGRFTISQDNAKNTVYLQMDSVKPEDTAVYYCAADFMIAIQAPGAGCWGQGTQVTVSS", "MFI", 13000),
    ("hIL10Ra_VHH14-hIL2Rg_VHH19, linker GGGSGGGS, tag his (bispecific antibody, not shown: small tags and cut ends) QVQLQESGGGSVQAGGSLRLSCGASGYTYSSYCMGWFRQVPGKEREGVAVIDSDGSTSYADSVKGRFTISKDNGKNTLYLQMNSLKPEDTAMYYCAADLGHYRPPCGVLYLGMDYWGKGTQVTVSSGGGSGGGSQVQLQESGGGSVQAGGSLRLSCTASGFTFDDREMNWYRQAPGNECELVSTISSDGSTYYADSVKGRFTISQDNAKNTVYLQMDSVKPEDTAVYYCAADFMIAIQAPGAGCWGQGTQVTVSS", "MFI", 12700),
]
